- Experiment notes: Paramagnetic relaxation properties in water at 10 MHz (0.15T), RADX spin analyzer
- Format: physicochemical
- Particulars: 0.97 mM solution in water, 10 MHz (0.15T), 37°C, triplicate, mean +/- SD
// reported spin-spin (T₂) relaxation value for each item listed
Expressed in ms, but write only the number.

CC(C)[C@H](N)C(=O)O.CC(C)[C@H](N)C(=O)O.O.O.[Cl-].[Cl-].[Mn+2]    26
CSCC[C@H](N)C(=O)O.CSCC[C@H](N)C(=O)O.O.O.[Cl-].[Cl-].[Mn+2]    27
NCCCC[C@H](N)C(=O)O.NCCCC[C@H](N)C(=O)O.O.O.[Cl-].[Cl-].[Mn+2]    26
C[C@@H](O)[C@H](N)C(=O)O.C[C@@H](O)[C@H](N)C(=O)O.O.O.[Cl-].[Cl-].[Mn+2]    28
N[C@@H](CS)C(=O)O.N[C@@H](CS)C(=O)O.O.O.[Cl-].[Cl-].[Mn+2]    25

Return the recorded spin-spin (T₂) relaxation value value; entry: `N[C@@H](Cc1c[nH]cn1)C(=O)O.N[C@@H](Cc1c[nH]cn1)C(=O)O.O.O.[Cl-].[Cl-].[Mn+2]`
29

Return the recorded spin-spin (T₂) relaxation value value; entry: `N=C(N)NCCC[C@H](N)C(=O)O.N=C(N)NCCC[C@H](N)C(=O)O.O.O.[Cl-].[Cl-].[Mn+2]`
97
